These measurements were taken from paper PMC9101642.

Exercise: for every item that follows, state its recorded γ-GT (U/L).
Assay: Serum biochemical markers after treatment of MNU-induced rats
Type: in vivo, Wistar rats
Conditions: serum, dose 50 mg/kg
# value in U/L; strip the unit string

Exam item: Requested field: γ-GT (U/L). Item: CNCCOc1ccc(C(=O)O[C@@H]2/C=C/C(=O)O[C@@H](O)CCC/C=C/[C@@H]3C[C@H](O)C[C@H]32)cc1C(C)=O
Marked response: 16.43

Exam item: Follow-up item: CC(=O)c1cc(C(=O)O[C@@H]2/C=C/C(=O)O[C@@H](O)CCC/C=C/[C@@H]3C[C@H](O)C[C@H]32)ccc1OCCN1CC(C(=O)O)=CCC1=O
Marked response: 12.36

Exam item: Follow-up item: CC(=O)c1cc(C(=O)O[C@@H]2/C=C/C(=O)O[C@@H](O)CCC/C=C/[C@@H]3C[C@H](O)C[C@H]32)ccc1OCCN(C)C
Marked response: 17.35

Exam item: Follow-up item: CC(=O)c1cc(C(=O)O[C@@H]2/C=C/C(=O)O[C@@H](O)CCC/C=C/[C@@H]3C[C@H](O)C[C@H]32)ccc1OCCN1CCCC(O)C1=O (stereo partly drawn)
Marked response: 15.54

Exam item: Follow-up item: O=C(c1ccc(OCCN2CCCCC2)cc1)c1c(-c2ccc(O)cc2)sc2cc(O)ccc12 [Ral., Raloxifene, reference compound]
Marked response: 12.35

Exam item: Follow-up item: CC(=O)c1cc(C(=O)OC2/C=C/C(=O)O[C@@H](O)CCC/C=C/[C@@H]3C[C@H](O)C[C@@H]23)ccc1OCCN1CCC=C(C(=O)O)C1 (stereo partly drawn)
Marked response: 11.64

Exam item: Follow-up item: CN(N=O)C(N)=O [MNU, Methyl nitrosourea, reference compound]
Marked response: 19.43

Exam item: Follow-up item: CC(=O)c1cc(C(=O)O[C@@H]2/C=C/C(=O)O[C@@H](O)CCC/C=C/[C@@H]3C[C@H](O)C[C@H]32)ccc1OCCS(=O)(=O)O
Marked response: 13.46

Exam item: Follow-up item: CC/C(=C(\c1ccc(O)cc1)c1ccc(OCCN(C)C)cc1)c1ccccc1 [Compound 4-OHT., 4-hydroxytamoxifen, reference compound]
Marked response: 18.47

* * *

Test: Serum biochemical markers after treatment of MNU-induced rats
Type: in vivo, Wistar rats
Settings: serum, dose 5 mg/kg
Reported Metric: AST (U/L)

Exam item: Requested field: AST (U/L). Item: CC(=O)c1cc(C(=O)O[C@@H]2/C=C/C(=O)O[C@@H](O)CCC/C=C/[C@@H]3C[C@H](O)C[C@H]32)ccc1OCCN1CC(C(=O)O)=CCC1=O [Compound 3DPQ-9]
Marked response: 64.52±0.43 U/L

Exam item: Follow-up item: CC(=O)c1cc(C(=O)OC2/C=C/C(=O)O[C@@H](O)CCC/C=C/[C@@H]3C[C@H](O)C[C@@H]23)ccc1OCCN1CCC=C(C(=O)O)C1 (some centres unmarked) [Compound 3DPQ-3]
Marked response: 58.43±0.31 U/L

Exam item: Follow-up item: O=C(c1ccc(OCCN2CCCCC2)cc1)c1c(-c2ccc(O)cc2)sc2cc(O)ccc12 [Ral., Raloxifene, reference compound]
Marked response: 53.57±0.43 U/L

Exam item: Follow-up item: CC/C(=C(\c1ccc(O)cc1)c1ccc(OCCN(C)C)cc1)c1ccccc1 [Compound 4-OHT., 4-hydroxytamoxifen, reference compound]
Marked response: 53.76±0.32 U/L

Exam item: Follow-up item: CC(=O)c1cc(C(=O)O[C@@H]2/C=C/C(=O)O[C@@H](O)CCC/C=C/[C@@H]3C[C@H](O)C[C@H]32)ccc1OCCS(=O)(=O)O [Compound 3DPQ-4]
Marked response: 57.53±0.43 U/L

Exam item: Follow-up item: CNCCOc1ccc(C(=O)O[C@@H]2/C=C/C(=O)O[C@@H](O)CCC/C=C/[C@@H]3C[C@H](O)C[C@H]32)cc1C(C)=O [Compound 3DPQ-1]
Marked response: 44.78±0.61 U/L

Exam item: Follow-up item: CC(=O)c1cc(C(=O)O[C@@H]2/C=C/C(=O)O[C@@H](O)CCC/C=C/[C@@H]3C[C@H](O)C[C@H]32)ccc1OCCN(C)C [Compound 3DPQ-2]
Marked response: 56.43±0.21 U/L

Exam item: Follow-up item: CC(=O)c1cc(C(=O)O[C@@H]2/C=C/C(=O)O[C@@H](O)CCC/C=C/[C@@H]3C[C@H](O)C[C@H]32)ccc1OCCN1CCCC(O)C1=O (some centres unmarked) [Compound 3DPQ-12]
Marked response: 51.54±0.74 U/L

* * *

Test: Serum biochemical markers after treatment of MNU-induced rats
Type: in vivo, Wistar rats
Settings: serum, dose 50 mg/kg
Reported Metric: AST (U/L)
Express the reported value numerically, then name its unit.

Exam item: Requested field: AST (U/L). Item: CC/C(=C(\c1ccc(O)cc1)c1ccc(OCCN(C)C)cc1)c1ccccc1 [Compound 4-OHT., 4-hydroxytamoxifen, reference compound]
Marked response: 58.41±0.25 U/L

Exam item: Follow-up item: CC(=O)c1cc(C(=O)O[C@@H]2/C=C/C(=O)O[C@@H](O)CCC/C=C/[C@@H]3C[C@H](O)C[C@H]32)ccc1OCCN1CCCC(O)C1=O (stereo partly drawn)
Marked response: 52.69±0.95 U/L

Exam item: Follow-up item: CC(=O)c1cc(C(=O)O[C@@H]2/C=C/C(=O)O[C@@H](O)CCC/C=C/[C@@H]3C[C@H](O)C[C@H]32)ccc1OCCN(C)C
Marked response: 59.54±0.32 U/L

* * *

Exercise: for every item that follows, state its recorded logRBA ERα.
Target: ERα (Homo sapiens)
Sequence (P03372 1-595): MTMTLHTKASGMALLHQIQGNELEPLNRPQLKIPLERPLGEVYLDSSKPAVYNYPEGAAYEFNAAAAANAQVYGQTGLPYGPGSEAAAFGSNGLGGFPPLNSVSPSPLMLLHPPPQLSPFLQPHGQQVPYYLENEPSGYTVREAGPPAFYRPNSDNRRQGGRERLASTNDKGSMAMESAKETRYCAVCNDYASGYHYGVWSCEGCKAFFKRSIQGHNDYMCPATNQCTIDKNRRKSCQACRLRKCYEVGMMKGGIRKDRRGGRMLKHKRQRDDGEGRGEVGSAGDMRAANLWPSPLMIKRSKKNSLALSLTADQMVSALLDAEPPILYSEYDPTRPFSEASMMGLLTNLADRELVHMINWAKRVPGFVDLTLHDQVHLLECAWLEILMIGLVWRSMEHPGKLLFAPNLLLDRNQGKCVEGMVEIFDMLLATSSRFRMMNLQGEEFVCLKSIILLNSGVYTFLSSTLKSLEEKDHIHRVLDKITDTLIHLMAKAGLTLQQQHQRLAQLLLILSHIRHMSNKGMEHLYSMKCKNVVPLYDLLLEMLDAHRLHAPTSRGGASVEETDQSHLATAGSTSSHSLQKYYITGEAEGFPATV
Test: Fluorescence polarization competition assay: antagonistic potency and relative binding affinity
Settings: log of % relative binding affinity, estradiol = 100%
Marks after values point to notes of the source that are not given here.

Exam item: Requested field: logRBA ERα. Item: CC(=O)c1cc(C(=O)O[C@@H]2/C=C/C(=O)O[C@@H](O)CCC/C=C/[C@@H]3C[C@H](O)C[C@H]32)ccc1OCCN1CCCC1
Marked response: 2.10 ^‡

Exam item: Follow-up item: CC(=O)c1cc(C(=O)O[C@@H]2/C=C/C(=O)O[C@@H](O)CCC/C=C/[C@@H]3C[C@H](O)C[C@H]32)ccc1OCCN1CCCCC1
Marked response: 2.06 ^‡

Exam item: Follow-up item: CC(=O)c1cc(C(=O)O[C@@H]2/C=C/C(=O)O[C@@H](O)CCC/C=C/[C@@H]3C[C@H](O)C[C@H]32)ccc1OCCN1CCCC(O)C1=O (some centres unmarked)
Marked response: 2.35 ^†,‡,§

Exam item: Follow-up item: CC(=O)c1cc(C(=O)O[C@@H]2/C=C/C(=O)O[C@@H](O)CCC/C=C/[C@@H]3C[C@H](O)C[C@H]32)ccc1OCCN1CCCC2CCCNC21 (some centres unmarked)
Marked response: 2.04 ^‡

Exam item: Follow-up item: CC(=O)c1cc(C(=O)O[C@@H]2/C=C/C(=O)O[C@@H](O)CCC/C=C/[C@@H]3C[C@H](O)C[C@H]32)ccc1OCCN1C=Cc2ccccc2C1
Marked response: 2.14 ^†,‡

Exam item: Follow-up item: CC(=O)c1cc(C(=O)O[C@@H]2/C=C/C(=O)O[C@@H](O)CCC/C=C/[C@@H]3C[C@H](O)C[C@H]32)ccc1OCCN1Cc2cccnc2C1
Marked response: 2.03 ^‡

Exam item: Follow-up item: CC(=O)c1cc(C(=O)O[C@@H]2/C=C/C(=O)O[C@@H](O)CCC/C=C/[C@@H]3C[C@H](O)C[C@H]32)ccc1OCCN1CC(C(=O)O)=CCC1=O
Marked response: 2.30 ^†,‡,§

Exam item: Follow-up item: CC(=O)c1cc(C(=O)OC2C=CC(=O)OC(O)CCCC=CC3CC(O)CC32)ccc1OCCN1C(=O)CCC1=O (centres unmarked)
Marked response: 2.04 ^‡

Exam item: Follow-up item: CC(=O)c1cc(C(=O)OC2/C=C/C(=O)O[C@@H](O)CCC/C=C/[C@@H]3C[C@H](O)C[C@@H]23)ccc1OCCN1CCC=C(C(=O)O)C1 (some centres unmarked)
Marked response: 2.31 ^†,‡,§

Exam item: Follow-up item: CNCCOc1ccc(C(=O)O[C@@H]2/C=C/C(=O)O[C@@H](O)CCC/C=C/[C@@H]3C[C@H](O)C[C@H]32)cc1C(C)=O
Marked response: 2.19 ^‡,§

Exam item: Follow-up item: CC(=O)c1cc(C(=O)O[C@@H]2/C=C/C(=O)O[C@@H](O)CCC/C=C/[C@@H]3C[C@H](O)C[C@H]32)ccc1OCCN(C)C
Marked response: 2.22 ^†,‡,§
